tested on: OVTOKO (Ovarian Carcinoma); assay: Bliss excess, mean over the matrix (fraction); higher = more synergy
VALUE_TYPE: Bliss excess
// no unit string in output, number only

MOLECULE	VALUE_TYPE	OBSERVED_MEASUREMENT
Cn1cnc2c(F)c(Nc3ccc(Br)cc3Cl)c(C(=O)NOCCO)cc21 [Selumetinib] + C[C@@H]1COCCN1C2=NC(=NC(=C2)C3(CC3)[S@](=N)(=O)C)C4=C5C=CNC5=NC=C4 [AZD6738] (first compound max 10 µM, 7x7, partner max 10 µM)	Bliss excess	-0.0278

Shift focus to the following entry.
Entry C[C@@H]1COCCN1c1cc(C2([S@](C)(=N)=O)CC2)nc(-c2ccnc3[nH]ccc23)n1 [AZD6738] + O=C(c1cc(Cc2n[nH]c(=O)c3ccccc23)ccc1F)N1CCN(C(=O)C2CC2)CC1 [Olaparib] (first compound max 10 µM, 7x7, partner max 10 µM) , Bliss excess reported as 0.0182

====

system: 786-0 (Kidney Carcinoma); test: Bliss excess, mean over the matrix (fraction); higher = more synergy
Recorded measurements of Bliss excess, one per entry
// no unit string in output, number only

Entry CN(CCO)CC[C@H](CSc1ccccc1)Nc1ccc(S(=O)(=O)NC(=O)c2ccc(N3CCC([C@@H](O)c4ccccc4-c4ccc(Cl)cc4)CC3)cc2)cc1S(=O)(=O)C(F)(F)F [AZD4320] + C1CN(CCC1(C(=O)N[C@@H](CCO)C2=CC=C(C=C2)Cl)N)C3=NC=NC4=C3C=CN4 [Capivasertib] (first compound max 1 µM, 7x7, partner max 3 µM) , Bliss excess reported as -0.0318

Entry COc1nnc2ccc(N3CCC(c4ccc(OCCN5CCN(C)C(=O)[C@H]5C)cc4)CC3)nn12 [AZD5153] + CCN(CCO)CCCOc1ccc2c(Nc3cc(CC(=O)Nc4cccc(F)c4)[nH]n3)ncnc2c1 [AZD2811] (first compound max 1 µM, 7x7, partner max 1 µM) , Bliss excess reported as -0.0274

Entry CCc1c2c(nc3ccc(O)cc13)-c1cc3c(c(=O)n1C2)COC(=O)[C@]3(O)CC [SN-38] + O=C(c1cc(Cc2n[nH]c(=O)c3ccccc23)ccc1F)N1CCN(C(=O)C2CC2)CC1 [Olaparib] (first compound max 0.3 µM, 7x7, partner max 10 µM) , Bliss excess reported as 0.0937

Entry Cc1c2c(nn1C)CSCc1cc(n(C)n1)CSc1cc(c3ccccc3c1)OCCCc1c(C(=O)O)n(C)c3c-2c(Cl)ccc13 [AZD5991] + Cn1cnc2c(F)c(Nc3ccc(Br)cc3Cl)c(C(=O)NOCCO)cc21 [Selumetinib] (first compound max 1 µM, 7x7, partner max 3 µM) , Bliss excess reported as 0.0107

====

Recorded measurements of combination Emax, one per entry
system: AsPC-1 (Pancreatic Carcinoma); assay: combination Emax (second highest fraction inhibited in the dose matrix, 72 h); higher = more inhibition; extreme values may be limits of the assay
// no unit string in output, number only

COMPOUND	TARGET_OR_TEST_SYSTEM	OBSERVED_MEASUREMENT
C[C@@H](c1ccc2nccn2c1)n1nnc2ncc(-c3cnn(C)c3)nc21 [Savolitinib] + Cc1c2c(nn1C)CSCc1cc(n(C)n1)CSc1cc(c3ccccc3c1)OCCCc1c(C(=O)O)n(C)c3c-2c(Cl)ccc13 [AZD5991] (first compound max 1 µM, 7x7, partner max 1 µM)	AsPC-1 (Pancreatic Carcinoma)	0.184

Entry Cc1c2c(nn1C)CSCc1cc(n(C)n1)CSc1cc(c3ccccc3c1)OCCCc1c(C(=O)O)n(C)c3c-2c(Cl)ccc13 [AZD5991] + Cn1cnc2c(F)c(Nc3ccc(Br)cc3Cl)c(C(=O)NOCCO)cc21 [Selumetinib] (first compound max 1 µM, 7x7, partner max 3 µM) , combination Emax reported as 0.506

Entry Cc1c2c(nn1C)CSCc1cc(n(C)n1)CSc1cc(c3ccccc3c1)OCCCc1c(C(=O)O)n(C)c3c-2c(Cl)ccc13 [AZD5991] + CC1(C)CCC(CN2CCN(c3ccc(C(=O)NS(=O)(=O)c4ccc(NCC5CCOCC5)c([N+](=O)[O-])c4)c(Oc4cnc5[nH]ccc5c4)c3)CC2)=C(c2ccc(Cl)cc2)C1 [Venetoclax] (first compound max 1 µM, 7x7, partner max 1 µM) , combination Emax reported as 0.12
